tested on: Human immunodeficiency virus 1; experiment: Inhibition of HIV1-induced cytopathogenicity in CEM/0 cells; format: functional, organism-based; details: Human immunodeficiency virus 1, CCRF-CEM
pEC50: −log10 of the molar value.
METRIC_NAME: pEC50

                                   compound                     test_system  metric_name  qualifying_sign  assay_result
0  COC(=O)[C@@H](C)NP(=O)(OC[C@@H]1CC[C@H](n2ccc(=O)[nH]c2=O)O1)Oc1ccccc1 (stereo not given in full)  Human immunodeficiency virus 1        pEC50                =          4.44
1  CCOC(=O)[C@@H](C)NP(=O)(OC[C@@H]1C=C[C@H](n2ccc(=O)[nH]c2=O)O1)Oc1ccccc1 (stereo not given in full)  Human immunodeficiency virus 1        pEC50                <          4.30
2  C[C@@H](NP(=O)(OC[C@@H]1C=C[C@H](n2ccc(=O)[nH]c2=O)O1)Oc1ccccc1)C(=O)OC(C)(C)C (stereo not given in full)  Human immunodeficiency virus 1        pEC50                <          3.60
3   O=c1ccn([C@H]2CC[C@@H](CO)O2)c(=O)[nH]1  Human immunodeficiency virus 1        pEC50                <          3.60
4  O=c1ccn([C@H]2C=C[C@@H](CO)O2)c(=O)[nH]1  Human immunodeficiency virus 1        pEC50                <          4.30
5  C[C@@H](NP(=O)(OC[C@@H]1CC[C@H](n2ccc(=O)[nH]c2=O)O1)Oc1ccccc1)C(=O)OC(C)(C)C (stereo not given in full)  Human immunodeficiency virus 1        pEC50                <          3.60
6  COC(=O)[C@@H](C)NP(=O)(OC[C@@H]1C=C[C@H](n2ccc(=O)[nH]c2=O)O1)Oc1ccccc1 (stereo not given in full)  Human immunodeficiency virus 1        pEC50                <          4.30
7  C[C@@H](NP(=O)(OC[C@@H]1C=C[C@H](n2ccc(=O)[nH]c2=O)O1)Oc1cccc2ccccc12)C(=O)OCc1ccccc1 (stereo not given in full)  Human immunodeficiency virus 1        pEC50                =          4.60
8  C[C@@H](NP(=O)(OC[C@@H]1CC[C@H](n2ccc(=O)[nH]c2=O)O1)Oc1cccc2ccccc12)C(=O)OCc1ccccc1 (stereo not given in full)  Human immunodeficiency virus 1        pEC50                =          4.82
9  CCOC(=O)[C@@H](C)NP(=O)(OC[C@@H]1CC[C@H](n2ccc(=O)[nH]c2=O)O1)Oc1ccccc1 (stereo not given in full)  Human immunodeficiency virus 1        pEC50                =          4.36

----------
test: Cytotoxicity against CEM/0 cells; assay type: cell-based, CCRF-CEM; details: human
Entries and their CC50 values follow.
METRIC_NAME: CC50 (µM)

                                   compound  metric_name  qualifying_sign  assay_result
0  O=c1ccn([C@H]2C=C[C@@H](CO)O2)c(=O)[nH]1         CC50                =           207
1  C[C@@H](NP(=O)(OC[C@@H]1C=C[C@H](n2ccc(=O)[nH]c2=O)O1)Oc1ccccc1)C(=O)OC(C)(C)C (some centres not stated)         CC50                >           250
2  CCOC(=O)[C@@H](C)NP(=O)(OC[C@@H]1CC[C@H](n2ccc(=O)[nH]c2=O)O1)Oc1ccccc1 (some centres not stated)         CC50                >           250
3  C[C@@H](NP(=O)(OC[C@@H]1CC[C@H](n2ccc(=O)[nH]c2=O)O1)Oc1ccccc1)C(=O)OC(C)(C)C (some centres not stated)         CC50                >           250
4   O=c1ccn([C@H]2CC[C@@H](CO)O2)c(=O)[nH]1         CC50                >           250
5  Cc1cn([C@H]2C=C[C@@H](CO)O2)c(=O)[nH]c1=O [STAVUDINE]         CC50                =           174
6  COC(=O)[C@@H](C)NP(=O)(OC[C@@H]1C=C[C@H](n2ccc(=O)[nH]c2=O)O1)Oc1ccccc1 (some centres not stated)         CC50                =          96.6
